Tested on: UniProtKB P06186
Sequence (P06186 whole entry): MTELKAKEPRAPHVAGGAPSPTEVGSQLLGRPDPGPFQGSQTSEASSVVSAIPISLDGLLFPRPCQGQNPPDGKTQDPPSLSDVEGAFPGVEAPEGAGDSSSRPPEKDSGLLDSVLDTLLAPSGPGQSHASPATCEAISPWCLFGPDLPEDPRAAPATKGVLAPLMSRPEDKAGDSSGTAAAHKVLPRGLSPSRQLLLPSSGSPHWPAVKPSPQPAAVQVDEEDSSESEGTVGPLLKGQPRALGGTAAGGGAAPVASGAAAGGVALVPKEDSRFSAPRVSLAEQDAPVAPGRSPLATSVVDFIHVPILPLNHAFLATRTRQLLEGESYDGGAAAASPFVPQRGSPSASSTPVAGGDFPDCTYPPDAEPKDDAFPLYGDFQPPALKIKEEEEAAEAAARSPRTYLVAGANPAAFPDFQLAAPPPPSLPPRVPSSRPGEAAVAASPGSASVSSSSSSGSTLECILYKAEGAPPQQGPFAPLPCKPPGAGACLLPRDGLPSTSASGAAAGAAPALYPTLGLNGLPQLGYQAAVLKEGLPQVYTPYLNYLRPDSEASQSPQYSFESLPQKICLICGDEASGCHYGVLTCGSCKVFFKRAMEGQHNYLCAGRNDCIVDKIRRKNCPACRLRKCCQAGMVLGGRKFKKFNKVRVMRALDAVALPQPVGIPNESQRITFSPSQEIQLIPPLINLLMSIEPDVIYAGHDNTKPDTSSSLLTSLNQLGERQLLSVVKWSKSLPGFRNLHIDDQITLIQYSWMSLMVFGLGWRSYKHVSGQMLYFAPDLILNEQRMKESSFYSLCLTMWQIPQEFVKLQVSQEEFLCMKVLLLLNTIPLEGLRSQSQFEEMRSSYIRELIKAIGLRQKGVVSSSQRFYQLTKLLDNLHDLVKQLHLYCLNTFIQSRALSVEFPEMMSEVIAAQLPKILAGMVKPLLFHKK
Experimental protocol: Relative binding affinity to rabbit progesterone receptor
Measurement label: log(RBA)

CC(=O)[C@H]1CC[C@H]2[C@@H]3CCC4=CC(=O)CC[C@]4(C)[C@H]3C(=O)C[C@]12C ... 0.301
CC(=O)O[C@]1(C(C)=O)CC[C@H]2[C@@H]3C=C(Cl)C4=CC(=O)CC[C@]4(C)[C@H]3CC[C@@]21C ... 2.16
CC(=O)[C@@]1(O)CC[C@H]2[C@@H]3CCC4=CC(=O)CC[C@]4(C)[C@H]3CC[C@@]21C ... -0.097
C#C[C@]1(O)CC[C@H]2[C@@H]3CC[C@H]4C[C@@H](O)CC[C@@H]4[C@H]3CC[C@@]21C ... -0.52
C[C@]12CCC(=O)C=C1CC[C@@H]1[C@@H]2[C@@H](O)C[C@@]2(C)[C@H]1CC[C@]2(O)C(=O)CO ... -1
CC(=O)[C@H]1CC[C@H]2[C@@H]3[C@H](C)CC4=CC(=O)CC[C@]4(C)[C@H]3CC[C@]12C ... 1.61
C=CC[C@]1(O)CC[C@H]2[C@@H]3CCC4=CCCC[C@@H]4[C@H]3CC[C@@]21C ... 1.08

Shifting focus to the compound that follows.
Simply: `CC(=O)[C@H]1CC[C@H]2[C@@H]3CCC4=CC(=O)CC[C@]4(CO)[C@H]3CC[C@]12C` , UniProtKB P06186, log(RBA) = -0.301

====

Tested on: UniProtKB P06186
Experimental protocol: Relative binding affinity to rabbit progesterone receptor
Measurement label: log(RBA)
Answer field: number only, no words.

Recorded log(RBA), per entry:
CC(=O)[C@@]12O[C@@H]1C[C@H]1[C@@H]3CCC4=CC(=O)CC[C@]4(C)[C@H]3CC[C@@]12C ... -0.097
C#C[C@]1(O)CC[C@H]2[C@@H]3CC[C@@H]4C[C@@H](O)CC[C@@H]4[C@H]3CC[C@@]21C ... -1

Shifting focus to the compound that follows.
The value of log(RBA) measured for the compound `CC[C@]12CC[C@H]3[C@@H](CCC4=CC(=O)CC[C@@]43C)[C@@H]1CC[C@@H]2C(C)=O` turned out to be 1.5

====

Reported log(RBA) values, Progesterone receptor (Homo sapiens) (UniProt P06401).

The value of log(RBA) measured for the compound `C#C[C@]1(OC(C)=O)CC[C@H]2[C@@H]3CCC4=CC(=O)CC[C@@H]4[C@H]3CC[C@@]21C` turned out to be 1.32

====

Tested on: Progesterone receptor (Ovis aries)
Experimental protocol: Relative binding affinity to sheep progesterone receptor
We label by threshold. Values of log(RBA) strictly beneath 0 are yes. Values of 0 and up are no.

C[C@]12CCC(=O)C=C1CC[C@@H]1[C@@H]2CC[C@]2(C)C(=O)CC[C@@H]12 ... yes
CC(=O)O[C@]1(C(C)=O)CC[C@H]2[C@@H]3C=C(Cl)C4=CC(=O)CC[C@]4(C)[C@H]3CC[C@@]21C ... no
C[C@]12CC[C@H]3[C@@H](CCC4=CC(=O)CC[C@@]43C)[C@@H]1CC[C@@H]2C(=O)CO ... no
CC(=O)[C@H]1CC[C@H]2[C@@H]3CCC4=CC(=O)CC[C@]4(C)[C@H]3CC[C@]12C ... no
CC(=O)[C@@]1(O)CC[C@H]2[C@@H]3CCC4=CC(=O)CC[C@]4(C)[C@H]3CC[C@@]21C ... yes
CC(=O)[C@H]1CC[C@H]2[C@@H]3CCC4=CC(=O)CC[C@@H]4[C@H]3CC[C@]12C ... no
C=CC[C@]1(O)CC[C@H]2[C@@H]3CCC4=CCCC[C@@H]4[C@H]3CC[C@@]21C ... no
CC(=O)[C@@]12O[C@@H]1C[C@H]1[C@@H]3CCC4=CC(=O)CC[C@]4(C)[C@H]3CC[C@@]12C ... yes

Could you please tell me whether log(RBA) recorded for `CC(=O)O[C@]1(C(C)=O)CC[C@H]2[C@@H]3CCC4=CC(=O)CC[C@]4(C)[C@H]3CC[C@@]21C` is less than 0?
no

Could you please tell me whether log(RBA) recorded for `CC(=O)O[C@]1(C(C)=O)CC[C@H]2[C@@H]3C[C@H](C)C4=CC(=O)CC[C@]4(C)[C@H]3CC[C@@]21C` is less than 0?
no

Could you please tell me whether log(RBA) recorded for `C#C[C@]1(O)CC[C@H]2[C@@H]3CC[C@H]4CC(=O)CC[C@@H]4[C@H]3CC[C@@]21C` is less than 0?
no

Could you please tell me whether log(RBA) recorded for `CC(=O)[C@H]1CC[C@H]2[C@@H]3CCC4=CC(=O)CC[C@]4(C)[C@H]3[C@H](O)C[C@]12C` is less than 0?
yes

Could you please tell me whether log(RBA) recorded for `CC(=O)[C@H]1CC[C@H]2[C@@H]3CC[C@@H]4CC(=O)CC[C@]4(C)[C@H]3CC[C@]12C` is less than 0?
no

Could you please tell me whether log(RBA) recorded for `C[C@H](O)[C@H]1CC[C@H]2[C@@H]3CCC4=CC(=O)CC[C@]4(C)[C@H]3CC[C@]12C` is less than 0?
no

Could you please tell me whether log(RBA) recorded for `CC[C@@H]1C[C@H]2[C@@H]3CCC4=CC(=O)CC[C@@H]4[C@H]3CC[C@]2(C)[C@H]1C(=O)CO` is less than 0?
no

Could you please tell me whether log(RBA) recorded for `C#C[C@]1(O)CC[C@H]2[C@@H]3CC[C@@H]4C[C@H](O)CC[C@@H]4[C@H]3CC[C@@]21C` is less than 0?
yes

Could you please tell me whether log(RBA) recorded for `C#C[C@]1(O)CC[C@H]2[C@@H]3CC[C@@H]4C[C@@H](O)CC[C@@H]4[C@H]3CC[C@@]21C` is less than 0?
yes

Could you please tell me whether log(RBA) recorded for `CC[C@]12CC[C@H]3[C@@H](CCC4=CC(=O)CC[C@@]43C)[C@@H]1CC[C@@H]2C(C)=O` is less than 0?
no

Could you please tell me whether log(RBA) recorded for `C#C[C@]1(O)CC[C@H]2[C@@H]3CCC4=CC(=O)CC[C@@H]4[C@H]3CC[C@@]21CC` is less than 0?
no

Could you please tell me whether log(RBA) recorded for `CC(=O)[C@H]1CC[C@H]2[C@@H]3CCC4=CC(=O)CC[C@]4(C)[C@H]3C(=O)C[C@]12C` is less than 0?
yes

Could you please tell me whether log(RBA) recorded for `C#C[C@]1(OC(C)=O)CC[C@H]2[C@@H]3CCC4=CCCC[C@@H]4[C@H]3CC[C@@]21C` is less than 0?
yes

Could you please tell me whether log(RBA) recorded for `CC(=O)OCC(=O)[C@H]1CC[C@H]2[C@@H]3CCC4=CC(=O)CC[C@]4(C)[C@H]3CC[C@]12C` is less than 0?
no

Could you please tell me whether log(RBA) recorded for `C[C@]12CCC(=O)C=C1CC[C@@H]1[C@@H]2[C@@H](O)C[C@@]2(C)[C@H]1CC[C@]2(O)C(=O)CO` is less than 0?
yes

Could you please tell me whether log(RBA) recorded for `CC(=O)O[C@]1(C(C)=O)CC[C@H]2[C@@H]3C=C(C)C4=CC(=O)CC[C@]4(C)[C@H]3CC[C@@]21C` is less than 0?
no

Could you please tell me whether log(RBA) recorded for `C#C[C@]1(O)CC[C@H]2[C@@H]3CC[C@H]4C[C@H](O)CC[C@@H]4[C@H]3CC[C@@]21C` is less than 0?
yes

Could you please tell me whether log(RBA) recorded for `CC(=O)[C@H]1CC[C@H]2[C@@H]3[C@H](C)CC4=CC(=O)CC[C@]4(C)[C@H]3CC[C@]12C` is less than 0?
no

====

A collection of compounds and their measured log(RBA)
Tested on: UniProt Q28590
Sequence (whole entry): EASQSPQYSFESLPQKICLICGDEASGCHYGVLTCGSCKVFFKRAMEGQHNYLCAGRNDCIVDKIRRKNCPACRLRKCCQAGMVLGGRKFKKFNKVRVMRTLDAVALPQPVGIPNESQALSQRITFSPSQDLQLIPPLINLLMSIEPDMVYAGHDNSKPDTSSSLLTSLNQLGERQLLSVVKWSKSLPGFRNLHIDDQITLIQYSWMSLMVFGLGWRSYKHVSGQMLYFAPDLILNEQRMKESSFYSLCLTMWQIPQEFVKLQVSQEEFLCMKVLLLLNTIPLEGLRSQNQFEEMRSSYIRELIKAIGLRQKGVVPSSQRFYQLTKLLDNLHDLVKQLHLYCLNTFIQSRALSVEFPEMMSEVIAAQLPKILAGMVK
Experimental protocol: Relative binding affinity to sheep progesterone receptor
Answer field: number only, no words.

Recorded log(RBA), per entry:
CC(=O)[C@@]12[C@@H](C[C@H]3[C@@H]4CCC5=CC(=O)CC[C@]5(C)[C@H]4CC[C@@]31C)C2(C)C ... 1.9
C#C[C@]1(O)CC[C@H]2[C@H]3[C@H](CC[C@@]21C)[C@H]1CCCC=C1C[C@H]3C ... 0.301
C#C[C@]1(O)CC[C@H]2[C@@H]3CC=C4CCCC[C@@H]4[C@H]3CC[C@@]21C ... -0.7
C[C@]12CC[C@H]3[C@@H](CCC4=CC(=O)CC[C@@H]43)[C@@H]1CC[C@@H]2O ... 1
CC[C@@H]1C[C@H]2[C@@H]3CCC4=CC(=O)CC[C@@H]4[C@H]3CC[C@]2(C)[C@H]1C(=O)CF ... 2.08

Shifting focus to the compound that follows.
The value of log(RBA) measured for the compound `C#C[C@]1(O)CC[C@H]2[C@@H]3CC[C@H]4C[C@@H](O)CC[C@@H]4[C@H]3CC[C@@]21C` turned out to be -1.3
